- system under test: recombinant soluble homotrimeric HA of A/chicken/Vietnam/NCVD-016/08 (H5N1) (Influenza A virus A/chicken/Vietnam/NCVD-016/2008 (H5N1))
- test protocol: HA microarray, BCC supernatant
- condition: remark: other sources report otherwise
What Trimeric HA Binding RLU was measured for each of the following?
Number first, unit second.

TCN-528 (5087_P17) (antibody, V domains shown) VH: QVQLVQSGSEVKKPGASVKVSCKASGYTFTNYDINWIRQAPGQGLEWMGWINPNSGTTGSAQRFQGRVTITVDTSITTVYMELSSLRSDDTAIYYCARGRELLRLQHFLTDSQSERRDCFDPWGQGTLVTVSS VL: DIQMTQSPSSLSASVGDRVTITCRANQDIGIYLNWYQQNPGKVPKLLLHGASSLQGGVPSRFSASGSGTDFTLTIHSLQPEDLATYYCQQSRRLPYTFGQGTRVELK | 38200 RLU

Can you give me Trimeric HA Binding RLU for all of these, one by one?
1. TCN-526 (5084_C17) (antibody, V domains shown) VH: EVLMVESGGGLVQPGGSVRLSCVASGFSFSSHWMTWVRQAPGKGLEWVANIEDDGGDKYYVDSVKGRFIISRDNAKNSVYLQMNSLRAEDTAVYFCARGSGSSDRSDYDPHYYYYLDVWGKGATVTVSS VL: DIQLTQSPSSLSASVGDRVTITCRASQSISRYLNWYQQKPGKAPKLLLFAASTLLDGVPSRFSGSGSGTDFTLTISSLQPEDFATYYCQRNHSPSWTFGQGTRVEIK
2. TCN-547 (5092_F11) (antibody, V domains shown) VH: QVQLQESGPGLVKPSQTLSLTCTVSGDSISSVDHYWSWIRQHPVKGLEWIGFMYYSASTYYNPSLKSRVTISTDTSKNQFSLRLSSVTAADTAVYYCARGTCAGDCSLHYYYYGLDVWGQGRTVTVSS VL: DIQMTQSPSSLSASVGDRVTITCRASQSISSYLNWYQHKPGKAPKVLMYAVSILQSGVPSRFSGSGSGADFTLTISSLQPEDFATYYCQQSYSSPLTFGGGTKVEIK

Result ::
["179 RLU", "198 RLU"]
